# Target entity: Toll-like receptor 4/MD-2/CD14 (Homo sapiens, UniProt O00206+P08571+Q9Y6Y9)
# Sequence (O00206 whole entry): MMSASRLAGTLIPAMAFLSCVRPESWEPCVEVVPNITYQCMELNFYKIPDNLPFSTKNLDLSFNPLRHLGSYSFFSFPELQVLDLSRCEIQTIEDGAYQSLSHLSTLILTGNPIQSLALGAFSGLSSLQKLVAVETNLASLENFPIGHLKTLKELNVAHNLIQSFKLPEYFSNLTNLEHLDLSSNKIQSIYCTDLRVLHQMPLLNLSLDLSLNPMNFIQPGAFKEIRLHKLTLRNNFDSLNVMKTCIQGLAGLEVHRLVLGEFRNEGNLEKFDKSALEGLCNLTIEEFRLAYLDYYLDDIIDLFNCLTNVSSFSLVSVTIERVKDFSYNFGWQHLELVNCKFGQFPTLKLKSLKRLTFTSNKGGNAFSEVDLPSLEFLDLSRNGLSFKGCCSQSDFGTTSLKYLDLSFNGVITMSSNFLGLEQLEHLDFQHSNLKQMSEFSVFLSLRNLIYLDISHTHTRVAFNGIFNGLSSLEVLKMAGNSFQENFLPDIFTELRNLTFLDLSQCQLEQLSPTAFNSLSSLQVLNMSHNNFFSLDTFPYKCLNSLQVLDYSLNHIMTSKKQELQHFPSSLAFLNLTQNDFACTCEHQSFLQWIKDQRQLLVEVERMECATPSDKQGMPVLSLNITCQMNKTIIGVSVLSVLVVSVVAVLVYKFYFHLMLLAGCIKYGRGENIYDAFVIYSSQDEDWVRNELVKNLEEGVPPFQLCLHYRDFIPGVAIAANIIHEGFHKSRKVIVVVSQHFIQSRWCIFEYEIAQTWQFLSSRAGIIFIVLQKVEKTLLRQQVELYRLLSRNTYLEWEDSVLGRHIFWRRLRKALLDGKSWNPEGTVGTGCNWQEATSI
# Sequence (Q9Y6Y9 whole entry): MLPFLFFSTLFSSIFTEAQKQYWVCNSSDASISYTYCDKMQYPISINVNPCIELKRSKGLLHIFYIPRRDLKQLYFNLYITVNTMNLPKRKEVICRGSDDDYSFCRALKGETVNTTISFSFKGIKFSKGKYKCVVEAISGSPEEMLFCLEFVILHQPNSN
# Sequence (P08571 whole entry): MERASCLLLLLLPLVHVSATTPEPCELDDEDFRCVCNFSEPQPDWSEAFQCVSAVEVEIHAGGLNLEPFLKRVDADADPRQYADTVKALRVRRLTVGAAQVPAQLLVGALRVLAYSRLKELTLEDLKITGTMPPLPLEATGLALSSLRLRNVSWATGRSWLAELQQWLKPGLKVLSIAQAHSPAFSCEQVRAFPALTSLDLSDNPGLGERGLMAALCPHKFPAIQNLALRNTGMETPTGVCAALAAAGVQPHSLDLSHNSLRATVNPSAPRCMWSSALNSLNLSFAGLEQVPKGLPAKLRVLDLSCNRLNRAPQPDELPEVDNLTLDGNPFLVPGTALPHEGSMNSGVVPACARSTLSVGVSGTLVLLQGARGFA
# Assay comment: Binding affinity to CD14/MD2 (unknown origin) expressed in HEK-Blue cells co-expressing TLR4 assessed as inhibition of LPS-induced TLR4 signaling preincubated for 30 mins followed by LPS stimulation measured after overnight incubation by secreted embryonic alkaline phosphatase reporter gene assay
For each record, write down the corresponding pIC50.
Keep in mind that pIC50 stands for -log10 of concentration in molar terms.

Ask: Form field - read-out: pIC50; system: Toll-like receptor 4/MD-2/CD14 (Homo sapiens, UniProt O00206+P08571+Q9Y6Y9); submitted item: `CC(C)(C)c1cc2c(OCCCNC(=N)N)c(c1)Cc1cc(C(C)(C)C)cc(c1OCCCNC(=N)N)Cc1cc(C(C)(C)C)cc(c1OCCCNC(=N)N)Cc1cc(C(C)(C)C)cc(c1OCCCNC(=N)N)C2.Cl.Cl.Cl.Cl`
Result: 5.00

Ask: Report pIC50 for `CC(C)(C)c1cc2c(OCCCCNC(=N)N)c(c1)Cc1cc(C(C)(C)C)cc(c1OCCCCNC(=N)N)Cc1cc(C(C)(C)C)cc(c1OCCCCNC(=N)N)Cc1cc(C(C)(C)C)cc(c1OCCCCNC(=N)N)C2.Cl.Cl.Cl.Cl` tested on Toll-like receptor 4/MD-2/CD14 (Homo sapiens, UniProt O00206+P08571+Q9Y6Y9).
Result: 6.70
